From: ChEMBL document CHEMBL3792373

- run description: Cytotoxicity against human THP1 cells upto 50 uM treated 3 times per week for 14 days by MTT assay
- Format: cell-based
- condition parameters: thp-1, 336 h
measurement name: Activity

Example cases with answers are listed next.
• Cc1ncc([N+](=O)[O-])n1CCn1cc(COCc2ccccc2)nn1 = Non-toxic
• Cc1ncc([N+](=O)[O-])n1CCn1cc(CNc2cccc(Cl)c2)nn1 = Non-toxic
• Cc1ncc([N+](=O)[O-])n1CCn1cc(CNc2ccccc2Cl)nn1 = Non-toxic
• Cc1ncc([N+](=O)[O-])n1CCn1cc(COc2ccc(C(C)C)cc2)nn1 = Non-toxic
• Cc1ccccc1NCc1cn(CCn2c([N+](=O)[O-])cnc2C)nn1 = Non-toxic
• Cc1ncc([N+](=O)[O-])n1CCn1cc(COc2ccc([N+](=O)[O-])cc2)nn1 = Non-toxic

Proceeding to the next compound to report its Activity.
[in] Could you share which Activity value was measured for Cc1ncc([N+](=O)[O-])n1CCn1cc(COc2c(Cl)cccc2Cl)nn1 ?
[out] Non-toxic
